experiment: Staphylococcus aureus RN4220 growth blockers – two temperatures, LtaS inhibitor project, primary screen (AID 720641); conditions: S. aureus RN4220 growth, OD600, 20 h, 42 °C; measured here: growth at 30 °C; stronger effect = lower value
Out of some 170,000 compounds screened, about 900 (0.53%) were called active. This excerpt belongs to a sample that is enriched for actives.
With a cut-off of 90%, any relative growth strictly below it is called class 1; any relative growth meeting it or above is called class 0.

# compound, answer_label
data = [
    ("O=C(Nc1ccncc1)c1cccc(COc2ccc3ccccc3c2)c1", "class 1"),
    ("CCOC(=O)Nc1sccc1C(N)=O", "class 0"),
    ("Cc1ccccc1-c1nc(CS(=O)(=O)CC(=O)NC(C)c2ccccc2)c(C)o1 (stereo unspecified)", "class 0"),
    ("Cc1ccc(CNCc2cccn2-c2sc(C)c(C)c2C(=O)O)cc1", "class 1"),
    ("CC(=O)Nc1ccc2nc3c(cc2c1)[nH]c1ccccc13", "class 0"),
    ("CSc1nsc(SCC(=O)N2CCCC2)n1", "class 1"),
    ("O=C(Nc1nnc(C2CC2)s1)c1cc(Cl)sc1Cl", "class 1"),
    ("Cc1cc(C)cc(NS(=O)(=O)c2ccc3c(c2)CC(=O)N3)c1", "class 1"),
    ("CC1CC(C)CN(C(=O)C(C)n2sc3ccccc3c2=O)C1 (stereo unspecified)", "class 0"),
    ("CCOC(=O)c1c(C)csc1NC(=O)CC(=O)C(F)(F)F", "class 1"),
    ("CCOC(=O)c1cc2oc(C)cc2n1CCCN1C(=O)c2ccccc2C1=O", "class 1"),
    ("CCOC(=O)c1c(NC(=O)C(F)(F)F)sc2c1CCCC2", "class 0"),
    ("CC1=CC(=O)C=CC1=N/C(=N\\S(=O)(=O)c1ccc(C)cc1)c1ccccc1", "class 1"),
]

###

assay: Staphylococcus aureus RN4220 growth blockers – two temperatures, LtaS inhibitor project, primary screen (AID 720641); details: S. aureus RN4220 growth, OD600, 20 h, 42 °C; stronger effect = lower value
Screen size: about 170,000 compounds; about 900 (0.53%) were called active. The list comes from a sample in which actives are over-represented; it also holds close analogues and randomly drawn compounds.
relative growth: recorded values

# compound, result_units, relative growth
measured = [
    ("Cc1oc2c(F)c(F)c(F)c(F)c2c1S(=O)(=O)Nc1cccc(C(F)(F)F)c1", "%", 8.52),
    ("O=C(Oc1ccc(Cl)cc1)c1csc(C2COc3ccccc3O2)n1 (centres undefined)", "%", 92.8),
    ("O=S(=O)(Cc1ccccc1)CC(O)COc1ccc(OC(F)(F)F)cc1 (centres undefined)", "%", 102),
    ("COc1ccc(N=C2SCCCN2C(=O)C2CCCC2)cc1OC", "%", 94.4),
    ("CN(C)C(=O)c1csc(C2COc3ccccc3O2)n1 (centres undefined)", "%", 93.5),
    ("COc1ccccc1CN=C(C)c1ccccc1O", "%", 101),
    ("CCOC(=O)C1=C(C)Nc2[nH]c(=O)[nH]c(=O)c2C1c1ccccc1 (centres undefined)", "%", 94.1),
    ("CC1=Nc2c(ccc3cccnc23)C1(C)C", "%", 3.05),
    ("CCC(C)NC(=O)Cn1nc(-c2ccccc2)c2cc(Cl)ccc21 (centres undefined)", "%", 105),
]

###

experiment: Staphylococcus aureus RN4220 growth blockers – two temperatures, LtaS inhibitor project, primary screen (AID 720641); details: S. aureus RN4220 growth, OD600, 20 h, 42 °C; measured here: growth at 30 °C; stronger effect = lower value
Out of some 170,000 compounds screened, about 900 (0.53%) were called active. Many of the other results were omitted from the sample, so actives are more common in it than they were.
With a cut-off of 80%, any relative growth strictly below it is called Criterion met; any relative growth meeting it or above is called Criterion not met.

# molecule, answer_label
records = [
    ("CCc1ccc2[nH]c(=O)c(CN(Cc3ccco3)C(=S)NCC(C)C)cc2c1", "Criterion met"),
    ("CCSc1ncc(Cl)c(C(=O)Nc2cc(C)ccc2C)n1", "Criterion not met"),
    ("COc1ccc(/C=C/C(=O)N2CCCC2)cc1OC", "Criterion not met"),
    ("O=C(Oc1ccc(Cl)cc1)c1csc(C2COc3ccccc3O2)n1 (stereo not given)", "Criterion not met"),
    ("CCOc1ccc(C(=O)N2CCC(Cc3ccccc3)CC2)cc1", "Criterion met"),
    ("CC1CCCCN1S(=O)(=O)c1ccc(C(=O)Nc2nnc(-c3cccs3)o2)cc1 (stereo not given)", "Criterion met"),
    ("Cc1c(C(=O)NC2CCCC2)oc2ccc(S(=O)(=O)N(C)C3CCCCC3)cc12", "Criterion not met"),
    ("COc1ccc(F)cc1C(O)CSCc1ccccc1 (stereo not given)", "Criterion not met"),
    ("CSCc1nnc(NC(=O)c2ccc(S(=O)(=O)N3CCCCC3C)cc2)o1 (stereo not given)", "Criterion met"),
    ("Cc1ccc(NC(=O)c2nc(S(=O)(=O)Cc3cccc(C)c3)ncc2Cl)cc1", "Criterion met"),
    ("CCNS(=O)(=O)c1ccc(NC(=O)Nc2cccc(C(F)(F)F)c2)cc1", "Criterion not met"),
    ("Cc1cnc(C(=O)OCc2cc(=O)n3ccsc3n2)cn1", "Criterion not met"),
    ("O=C(CSc1nnc(-c2ccccc2)o1)N(CC1CCCO1)c1nc2ccccc2s1 (stereo not given)", "Criterion not met"),
    ("CN(C)C(=O)c1csc(C2COc3ccccc3O2)n1 (stereo not given)", "Criterion not met"),
]

###

experiment: Staphylococcus aureus RN4220 growth blockers – two temperatures, LtaS inhibitor project, primary screen (AID 720641); conditions: S. aureus RN4220 growth, OD600, 20 h, 42 °C
Screen size: about 170,000 compounds; about 900 (0.53%) were called active.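 Rule for the calls: active = relative growth at most 50% at the other temperature and 20+ points below 30 °C, or under 10% at both; inactive = the rest, inconclusive results apart.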 The sample holds actives, similar compounds and a random draw of the others, so the mix is not that of the screen.
Outcome codes: t (active), f (inactive)

# compound, answer_label
records = [
    ("CCN1CCCC1CNC(=O)c1nnc(Cc2ccccc2OC)o1 (configuration not stated)", "f"),
    ("Cc1cc(N2CCCCC2)nc2ccc(NC(=O)CCC(=O)N3CCC(C)CC3)cc12", "f"),
    ("CC(=O)Nc1ccc2c(c1)CN(C1CCCCC1)CO2", "f"),
    ("Cc1c(C(=O)NC2CCCC2)oc2ccc(S(=O)(=O)N(C)C3CCCCC3)cc12", "f"),
    ("COC(=O)c1scc2c(N3CCCCC3)cc(C(F)(F)F)nc12", "f"),
    ("CO[C@@H]1[C@@H](OC(N)=O)[C@H](O)[C@H](Oc2ccc3c(O)c(NC(=O)c4ccc(O)c(CC=C(C)C)c4)c(=O)oc3c2C)OC1(C)C", "t"),
    ("O=C(Nc1cccc(Cl)c1)Nc1ccccn1", "f"),
    ("O=S(=O)(NCCC12CC3CC(CC(C3)C1)C2)c1cc(Cl)ccc1Cl", "f"),
    ("CC1CCCCN1S(=O)(=O)c1ccc(F)c(C(=O)Nc2ccccc2C(F)(F)F)c1 (configuration not stated)", "f"),
    ("Cc1cc(C)cc(NS(=O)(=O)c2ccc3c(c2)CC(=O)N3)c1", "f"),
    ("CC(C)Oc1ccc(C(=O)Nc2ccnn2C2CCCCC2)cc1", "f"),
    ("Cc1ccc(-n2c(C)ccc2C)cc1", "f"),
    ("Cc1cccc(C)c1Nc1c(-c2ccccc2O)nc2ncccn12", "f"),
    ("NC(=O)N/N=C1/C=C(c2ccccc2)C(O)(c2ccccc2)C1 (configuration not stated)", "f"),
    ("CC(C)NC(=O)COc1ccc(-c2nn(C)c(=O)c3ccccc23)cc1", "f"),
    ("COc1ccc(OCCn2c(S(=O)(=O)Cc3ccccc3)nc3ccccc32)cc1", "f"),
    ("FC(F)(F)C1CCCN(c2nsc3ccccc23)C1 (configuration not stated)", "t"),
    ("CS(=O)(=O)NCCNc1cc(-c2ccccc2)nc2ccccc12", "f"),
    ("NC(=O)c1ncoc1-c1cccc(Cl)c1", "f"),
    ("CC1CCCCN1S(=O)(=O)c1ccc(C(=O)Nc2nnc(-c3cccs3)o2)cc1 (configuration not stated)", "t"),
    ("COc1ccc(-c2nn(C)c3sc(C(=O)NCCN4CCN(c5ccccc5F)CC4)cc23)cc1OC", "f"),
    ("CCOC(=O)N1CCC(N2Cc3cccc(C(=O)NC4CCN(Cc5ccccc5)CC4)c3C2=O)CC1", "f"),
    ("O=C(Nc1ccccc1)Nc1ccc(Cl)c(Cl)c1", "t"),
    ("COC(=O)c1ccc2c(c1)NC(=O)C(C)N2 (configuration not stated)", "f"),
    ("CCCCCc1c(C)nc(-c2ccccn2)[nH]c1=O", "t"),
    ("COC(=O)c1ccc(C)c(NS(=O)(=O)c2ccc3c(c2)c(=O)sn3C)c1", "t"),
    ("COc1cccc(OCCCN2CCNCC2)c1", "f"),
]
